Tested on: Escherichia coli IAI1
Assay: fold change of Putrescine concentration vs plate DMSO controls (fold change (ratio)); higher = more amine produced, active = hit call of the paper (significant change in both replicates, either direction)
Settings: incubation time: 27 h, anaerobic, 37 °C
Counter-ions that a name gives are not always drawn.
Values of fold change of Putrescine concentration greater than or equal to 1 map to satisfied; values below map to not satisfied.

Kindly determine if fold change of Putrescine concentration recorded for Cc1nc2n(c(=O)c1CCN1CCC(c3noc4cc(F)ccc34)CC1)CCCC2O (stereo not given) [Paliperidone] (20 µM) is above or exactly 1.
satisfied

Kindly determine if fold change of Putrescine concentration recorded for COc1ccc(C(=O)c2ccccc2)c(O)c1 [Oxybenzone] (20 µM) is above or exactly 1.
not satisfied

Kindly determine if fold change of Putrescine concentration recorded for C[C@@H]1CN(c2c(F)c(N)c3c(=O)c(C(=O)O)cn(C4CC4)c3c2F)C[C@H](C)N1 [Sparfloxacin] (20 µM) is above or exactly 1.
not satisfied

Kindly determine if fold change of Putrescine concentration recorded for Nc1nc(NC2CC2)c2ncn([C@H]3C=C[C@@H](CO)C3)c2n1 [Abacavir sulfate] (20 µM) is above or exactly 1.
satisfied

Kindly determine if fold change of Putrescine concentration recorded for C[C@@H](O[C@H]1OCCN(Cc2n[nH]c(=O)[nH]2)[C@H]1c1ccc(F)cc1)c1cc(C(F)(F)F)cc(C(F)(F)F)c1 [Aprepitant] (20 µM) is above or exactly 1.
satisfied

Kindly determine if fold change of Putrescine concentration recorded for CC1(C)O[C@@H]2C[C@H]3[C@@H]4C[C@H](F)C5=CC(=O)CC[C@]5(C)[C@H]4[C@@H](O)C[C@]3(C)[C@]2(C(=O)CO)O1 [Flurandrenolide] (20 µM) is above or exactly 1.
satisfied

Kindly determine if fold change of Putrescine concentration recorded for N/C(=N\C(=O)c1nc(Cl)c(N)nc1N)NCc1ccccc1 [Benzamil hydrochloride] (20 µM) is above or exactly 1.
not satisfied

Kindly determine if fold change of Putrescine concentration recorded for Cc1cc(NC(=O)C2=C(O)c3ccccc3S(=O)(=O)N2C)no1 [Isoxicam] (20 µM) is above or exactly 1.
satisfied

Kindly determine if fold change of Putrescine concentration recorded for N[C@@H](Cc1cc(I)c(Oc2ccc(O)c(I)c2)c(I)c1)C(=O)O [Liothyronine] (20 µM) is above or exactly 1.
not satisfied

Kindly determine if fold change of Putrescine concentration recorded for Cc1cc(C#N)cc(C)c1Oc1nc(Nc2ccc(C#N)cc2)nc(N)c1Br [Etravirine] (20 µM) is above or exactly 1.
satisfied

Kindly determine if fold change of Putrescine concentration recorded for Cc1onc(-c2ccccc2)c1-c1ccc(S(N)(=O)=O)cc1 [Valdecoxib] (20 µM) is above or exactly 1.
satisfied

Kindly determine if fold change of Putrescine concentration recorded for CC(=O)Oc1cccc2c1C(=O)c1c(OC(C)=O)cc(C(=O)O)cc1C2=O [Diacerein] (20 µM) is above or exactly 1.
satisfied

Kindly determine if fold change of Putrescine concentration recorded for CC1(C)NC(=O)N(c2ccc([N+](=O)[O-])c(C(F)(F)F)c2)C1=O [Nilutamide] (20 µM) is above or exactly 1.
satisfied

Kindly determine if fold change of Putrescine concentration recorded for CC(=O)c1ccc2c(c1)N(CCCN1CCC(CCO)CC1)c1ccccc1S2 [Piperacetazine] (20 µM) is above or exactly 1.
not satisfied

Kindly determine if fold change of Putrescine concentration recorded for NS(=O)(=O)c1cc2c(cc1Cl)NCNS2(=O)=O [Hydrochlorothiazide] (20 µM) is above or exactly 1.
satisfied

====

Tested on: Ruminococcus gnavus DSM 108212
Assay: fold change of Tryptamine concentration vs plate DMSO controls (fold change (ratio)); higher = more amine produced, active = hit call of the paper (significant change in both replicates, either direction)
Details: incubation time: 27 h, anaerobic, 37 °C
Structures can show the parent of a compound that is named as a salt.
ATTRIBUTE MEASURED: fold change of Tryptamine concentration

# lookup: fold change of Tryptamine concentration of CC(=O)Nc1ccc(OC(=O)c2ccccc2O)cc1 [Acetaminosalol] (20 µM)
0.928 (inactive)

# lookup: fold change of Tryptamine concentration of OC[C@H]1O[C@@](CO)(O[C@H]2O[C@H](CO)[C@@H](O)[C@H](O)[C@H]2O)[C@@H](O)[C@@H]1O [Sucrose] (50 µM)
1.08 (inactive)

# lookup: fold change of Tryptamine concentration of O=c1[nH]c(=O)n([C@H]2C[C@H](O)[C@@H](CO)O2)cc1C(F)(F)F [Trifluridine] (20 µM)
1.07 (inactive)

# lookup: fold change of Tryptamine concentration of COc1ccc(OC)c(C(O)CNC(=O)CN)c1 (stereo unspecified) [Midodrine hydrochloride] (20 µM)
1 (inactive)

# lookup: fold change of Tryptamine concentration of NC(=O)C(c1ccccc1)(c1ccccc1)[C@@H]1CCN(CCc2ccc3c(c2)CCO3)C1 [Darifenacin hydrobromide] (20 µM)
1.1 (inactive)

# lookup: fold change of Tryptamine concentration of COc1ccc(C(=O)NCc2ccc(OCCN(C)C)cc2)cc1OC [Itopride] (20 µM)
1.04 (inactive)

# lookup: fold change of Tryptamine concentration of Nc1ccc(O)c(C(=O)O)c1 [Mesalamine] (20 µM)
1.01 (inactive)

# lookup: fold change of Tryptamine concentration of Cc1cc(CC(=O)O)n(C)c1C(=O)c1ccc(Cl)cc1 [Zomepirac sodium salt] (20 µM)
0.972 (inactive)

# lookup: fold change of Tryptamine concentration of CC(C)CN(C[C@@H](O)[C@H](Cc1ccccc1)NC(=O)O[C@H]1CO[C@H]2OCC[C@H]21)S(=O)(=O)c1ccc(N)cc1 [Darunavir] (20 µM)
0.863 (inactive)

# lookup: fold change of Tryptamine concentration of CCN1CCCC(OC(=O)C(c2ccccc2)c2ccccc2)C1 (stereo unspecified) [Piperidolate hydrochloride] (20 µM)
1.01 (inactive)

# lookup: fold change of Tryptamine concentration of C[C@H](O)[C@H](O)[C@H]1CNc2[nH]c(N)nc(=O)c2N1 [Sapropterin dihydrochloride] (20 µM)
0.945 (inactive)

# lookup: fold change of Tryptamine concentration of C#C[C@]1(OC(C)=O)CC[C@H]2[C@@H]3CCC4=C[C@@H](OC(C)=O)CC[C@@H]4[C@H]3CC[C@@]21C [Ethynodiol diacetate] (20 µM)
1.01 (inactive)

# lookup: fold change of Tryptamine concentration of CCn1cc(C(=O)O)c(=O)c2cc(F)c(N3CCN(C)CC3)cc21 [Pefloxacin] (20 µM)
0.915 (inactive)

# lookup: fold change of Tryptamine concentration of COc1ccc(-c2ccc3cc(C(=O)O)ccc3c2)cc1C12CC3CC(CC(C3)C1)C2 [Adapalene] (20 µM)
1.04 (inactive)

# lookup: fold change of Tryptamine concentration of CN(C)CCN(Cc1ccccc1)c1ccccn1 [Tripelennamine hydrochloride] (20 µM)
1.02 (inactive)

# lookup: fold change of Tryptamine concentration of Cc1nnc(SCC2=C(C(=O)O)N3C(=O)[C@@H](NC(=O)Cn4cnnn4)[C@H]3SC2)s1 [Cefazolin sodium salt] (20 µM)
0.0727 (active)

====

System: Klebsiella aerogenes DSM 30053
Experiment: growth (OD595) fold change vs plate DMSO controls (fold change (ratio)); higher = more growth
Conditions: incubation time: 27 h, anaerobic, 37 °C
Counter-ions that a name gives are not always drawn.
Hi there, I'd appreciate the recorded growth for every entry that follows.
Give only the figure.

# lookup: growth of CO[C@@H]1[C@@H](O[C@@H]2O[C@H](C)[C@@H](O[C@H]3C[C@@](C)(O)[C@@H](O)[C@H](C)O3)[C@H](N(C)C)[C@H]2O)[C@@H](CC=O)C[C@@H](C)[C@@H](O[C@H]2CC[C@H](N(C)C)[C@@H](C)O2)/C=C/C=C/C[C@@H](C)OC(=O)C[C@H]1OC(C)=O [Acetyl spiramycin] (20 µM)
0.958

# lookup: growth of Nc1ccc(S(=O)(=O)Nc2cnc3ccccc3n2)cc1 [Sulfaquinoxaline sodium salt] (20 µM)
0.991

====

System: Ruminococcus gnavus DSM 108212
Test: fold change of Tryptamine concentration vs plate DMSO controls (fold change (ratio)); higher = more amine produced, active = hit call of the paper (significant change in both replicates, either direction)
Conditions: incubation time: 27 h, anaerobic, 37 °C
Values of fold change of Tryptamine concentration greater than or equal to 1 map to condition met; values below map to condition not met.

Kindly determine if fold change of Tryptamine concentration recorded for Cc1cn(-c2cc(NC(=O)c3ccc(C)c(Nc4nccc(-c5cccnc5)n4)c3)cc(C(F)(F)F)c2)cn1 [Nilotinib] (20 µM) is above or exactly 1.
condition not met

Kindly determine if fold change of Tryptamine concentration recorded for c1ccc(-c2ccc(C(c3ccccc3)n3ccnc3)cc2)cc1 (stereo unspecified) [Bifonazole] (20 µM) is above or exactly 1.
condition not met

Kindly determine if fold change of Tryptamine concentration recorded for CCN[C@H]1CN(CCCOC)S(=O)(=O)c2sc(S(N)(=O)=O)cc21 [Brinzolamide] (20 µM) is above or exactly 1.
condition not met

Kindly determine if fold change of Tryptamine concentration recorded for CCOC(=O)O[C@]1(C(=O)COC(=O)CC)CC[C@H]2[C@@H]3CCC4=CC(=O)C=C[C@]4(C)[C@H]3[C@@H](O)C[C@@]21C [Prednicarbate] (20 µM) is above or exactly 1.
condition met

Source listed as the supplement of paper PMC12494721.
